These data points were gathered from the supplement of paper PMC10567573.

B1: VTI1B (parent)
chain: ANETLAEMEEELRYAPLSFRNPMM

Variants of: B1
run_description: protein stability index of a GFP-peptide fusion (GPS, HEK-293T) (PSI 1-6); higher = more stable;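 note: lentivirally expressed fusions sorted by FACS into six bins by GFP to DsRed ratio, PSI derived from sequencing read proportions per bin multiplied by bin number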
conditions: c terminus: a fixed tail appended
Hi, to clarify the labels: yes covers protein stability index from 2 upward, no covers anything below 2.

Use these answered entries as a reference point.
# mutation_code, assigned_class
measured = [
    ("P22C", "yes"),
    ("M8V", "yes"),
    ("L12V", "no"),
    ("Y14K", "no"),
    ("M24Q", "yes"),
]

Is protein stability index for S18E at or above 2?
yes

Item L12I with protein stability index of 2 or above?
yes

Decide: is the reported value of protein stability index for A6T equal to or greater than 2?
no

Check the entry M24F : does protein stability index equal or exceed 2?
yes

Check if protein stability index >= 2 (inclusive). Item: N21S
yes

Quick check: does E10C have protein stability index greater than or equal to 2?
yes

Does protein stability index meet or surpass 2 for L5Y ?
yes

Check this variant for protein stability index at or above 2: A15R
no

Kindly determine if protein stability index recorded for A1F is above or exactly 2.
no
